# targetDesc: Human autotaxin enzyme (Homo sapiens)
# Construct: purchased R&D System
# assayMethodText: Evaluation of autotaxin inhibitor, 18:0 Lyso PC / choline assay (Test Example 2)
# Assay type: biochemical
# conditionContext: human autotaxin enzyme, 18:0 Lyso PC substrate, choline assay, room temperature 2 hours; read-out: Inhibitor activity (IC50)
pIC50: −log10 of the molar value.
Each entry below carries its recorded pIC50.

What the record says about `COC(=O)Nc1cc(Cl)ccc1-c1cc(=O)n(CC(=O)NC2(C#N)CC2)c(C)n1` : pIC50 is 7.00 to 8.00

What the record says about `O=C(O)c1cccc(Cn2c(CCC(F)(F)F)nc(-c3ccc(Cl)cc3NC(=O)C3CC3)cc2=O)c1` : pIC50 is 7.00 to 8.00

What the record says about O=C1CCC(CNC(=O)c2cccc(Cn3c(CCCC(F)(F)F)nc(-c4ccc(Cl)cc4)cc3=O)c2)CN1 (stereo not shown) : pIC50 is 7.00 to 8.00

What the record says about `CCCCCNc1nc(-c2ccc(C(F)(F)F)cc2)cc(=O)n1Cc1ccc(C(=O)O)cc1` : pIC50 is 6.00 to 7.00

* * *

# targetDesc: Human autotaxin enzyme (Homo sapiens)
# Construct: purchased R&D System
# assayMethodText: Evaluation of autotaxin inhibitor, 18:0 Lyso PC / choline assay (Test Example 2)
# Assay type: biochemical
# conditionContext: human autotaxin enzyme, 18:0 Lyso PC substrate, choline assay, room temperature 2 hours; read-out: Inhibitor activity (IC50)
Each entry below carries its recorded IC50.

Some entries whose results are on file:
[[record]]
compound = "CC(C)(C)C(=O)Nc1cc(Cl)ccc1-c1cc(=O)n(Cc2cccc(C(=O)Nc3cccnc3O)c2)cn1"
targetdesc = "Human autotaxin enzyme (Homo sapiens)"
resultvalue = "0.01 to 0.1 µM"

[[record]]
compound = "O=C(Cn1c(CCCC(F)(F)F)nc(-c2ccc(C(F)(F)F)cc2)cc1=O)NCC1CCO1 (stereo not shown)"
targetdesc = "Human autotaxin enzyme (Homo sapiens)"
resultvalue = "0.01 to 0.1 µM"

[[record]]
compound = "O=C(Cn1c(CCCC(F)(F)F)nc(-c2ccc(Cl)cc2)cc1=O)N(CCO)CCO"
targetdesc = "Human autotaxin enzyme (Homo sapiens)"
resultvalue = "0.01 to 0.1 µM"

[[record]]
compound = "CCCCCNc1nc(-c2ccc(C(F)(F)F)cc2)cc(=O)n1Cc1cccc(C(=O)NCC(=O)O)c1"
targetdesc = "Human autotaxin enzyme (Homo sapiens)"
resultvalue = "0.01 to 0.1 µM"

[[record]]
compound = "CNc1cc(Cl)ccc1-c1cc(=O)n(CC(=O)NC2(C#N)CC2)c(CCCC(F)(F)F)n1"
targetdesc = "Human autotaxin enzyme (Homo sapiens)"
resultvalue = "0.1 to 1 µM"

[[record]]
compound = "CCCCCc1nc(-c2ccc(Cl)cc2)cc(=O)n1CC(=O)NCCN(C)C"
targetdesc = "Human autotaxin enzyme (Homo sapiens)"
resultvalue = "0.1 to 1 µM"

[[record]]
compound = "CN(C)C(=O)NC1CCN(C(=O)Cn2c(CCCC(F)(F)F)nc(-c3ccc(C(F)(F)F)cc3)cc2=O)CC1"
targetdesc = "Human autotaxin enzyme (Homo sapiens)"
resultvalue = "0.1 to 1 µM"

[[record]]
compound = "CCCCCc1nc(-c2ccc(Cl)cc2)cc(=O)n1CC(=O)N[C@@H](CO)Cc1ccccc1"
targetdesc = "Human autotaxin enzyme (Homo sapiens)"
resultvalue = "0.1 to 1 µM"

[[record]]
compound = "CCCCCc1nc(-c2ccc(Cl)cc2)cc(=O)n1C"
targetdesc = "Human autotaxin enzyme (Homo sapiens)"
resultvalue = "≥ 1 µM"

[[record]]
compound = "O=C(O)c1cccc(Cn2c(CCCC(F)(F)F)nc(-c3ccc(Cl)cc3CO)cc2=O)c1"
targetdesc = "Human autotaxin enzyme (Homo sapiens)"
resultvalue = "0.01 to 0.1 µM"


# context switch: different compound, same IC50
What the record says about `O=C(NCc1cnccn1)c1cccc(Cn2c(CCCC(F)(F)F)nc(-c3ccc(Cl)cc3)cc2=O)c1` : IC50 is 0.1 to 1 µM

* * *

# targetDesc: Human autotaxin enzyme (Homo sapiens, UniProt Q13822)
# Construct: purchased R&D System
# assayMethodText: Evaluation of autotaxin inhibitor, 18:0 Lyso PC / choline assay (Test Example 2)
# Format: biochemical
# conditionContext: human autotaxin enzyme, 18:0 Lyso PC substrate, choline assay, room temperature 2 hours; read-out: Inhibitor activity (IC50)
pIC50: −log10 of the molar value.
Each entry below carries its recorded pIC50.

Some entries whose results are on file:
[[record]]
compound = "CC(C)(C)OC(=O)NCn1c(CCCC(F)(F)F)nc(-c2ccc(Cl)cc2)cc1=O"
resultvalue = "6.00 to 7.00"

[[record]]
compound = "Cc1nc(-c2ccc(Cl)cc2NC(=O)C(C)(C)C)cc(=O)n1Cc1cccc(C(=O)O)c1"
resultvalue = "> 8.00"

[[record]]
compound = "COCCCc1nc(-c2ccc(Cl)cc2)cc(=O)n1CC(=O)NCC(C)(C)O"
resultvalue = "6.00 to 7.00"

[[record]]
compound = "CCCCCNc1nc(-c2ccc(C(F)(F)F)cc2)cc(=O)n1Cc1cccc(C(=O)NC(Cc2ccccc2)C(=O)O)c1 (stereo not shown)"
resultvalue = "6.00 to 7.00"

[[record]]
compound = "COCCCNC(=O)c1cccc(Cn2c(CCCC(F)(F)F)nc(-c3ccc(Cl)cc3)cc2=O)c1"
resultvalue = "6.00 to 7.00"

[[record]]
compound = "CCCCCc1nc(-c2ccc(Cl)cc2)cc(=O)n1CC(=O)NC(CC(=O)O)c1ccccc1 (stereo not shown)"
resultvalue = "7.00 to 8.00"


# context switch: different compound, same pIC50
What the record says about `CC(C)(O)CNC(=O)Cn1c(COCC2CC2)nc(-c2ccc(Cl)cc2)cc1=O` : pIC50 is 6.00 to 7.00

* * *

Each entry below carries its recorded pIC50.
# targetDesc: Human autotaxin enzyme (Homo sapiens)
# Construct: purchased R&D System
# assayMethodText: Evaluation of autotaxin inhibitor, 18:0 Lyso PC / choline assay (Test Example 2)
# Format: biochemical
# conditionContext: human autotaxin enzyme, 18:0 Lyso PC substrate, choline assay, room temperature 2 hours; read-out: Inhibitor activity (IC50)
pIC50: −log10 of the molar value.

Some entries whose results are on file:
[[record]]
compound = "CNC(=O)c1cccc(Cn2c(CCCC(F)(F)F)nc(-c3ccc(Cl)cc3)cc2=O)c1"
targetdesc = "Human autotaxin enzyme (Homo sapiens)"
resultvalue = "6.00 to 7.00"

[[record]]
compound = "CCCCCc1nc(-c2ccc(Cl)cc2)cc(=O)n1CC(=O)Nc1cc(C2CC2)no1"
targetdesc = "Human autotaxin enzyme (Homo sapiens)"
resultvalue = "≤ 6.00"

[[record]]
compound = "N#CC1(NC(=O)Cn2c(CCCC(F)(F)F)nc(-c3ccc(Cl)cc3O)cc2=O)CC1"
targetdesc = "Human autotaxin enzyme (Homo sapiens)"
resultvalue = "6.00 to 7.00"

[[record]]
compound = "COC(=O)Nc1cc(C#N)ccc1-c1cc(=O)n(CC(=O)NC(C)(C)C(F)(F)F)c(C)n1"
targetdesc = "Human autotaxin enzyme (Homo sapiens)"
resultvalue = "> 8.00"

[[record]]
compound = "O=C(Cn1c(COCC2CC2)nc(-c2ccc(Cl)cc2)cc1=O)NCC1(CO)CC1"
targetdesc = "Human autotaxin enzyme (Homo sapiens)"
resultvalue = "6.00 to 7.00"


Lab entry: Human autotaxin enzyme (Homo sapiens) assay, compound `CNC(=O)NC1CCN(C(=O)Cn2c(C)nc(-c3ccc(Cl)cc3NC(=O)C3CC3)cc2=O)CC1` , pIC50 = 7.00 to 8.00

Lab entry: Human autotaxin enzyme (Homo sapiens) assay, compound O=C(NCC(O)c1ccccc1)c1cccc(Cn2c(CCCC(F)(F)F)nc(-c3ccc(Cl)cc3)cc2=O)c1 (stereo not shown) , pIC50 = 6.00 to 7.00

* * *

# targetDesc: Human autotaxin enzyme (Homo sapiens)
# Construct: purchased R&D System
# assayMethodText: Evaluation of autotaxin inhibitor, 18:0 Lyso PC / choline assay (Test Example 2)
# Assay type: biochemical
# conditionContext: human autotaxin enzyme, 18:0 Lyso PC substrate, choline assay, room temperature 2 hours; read-out: Inhibitor activity (IC50)
pIC50: −log10 of the molar value.
Each entry below carries its recorded pIC50.

Some entries whose results are on file:
[[record]]
compound = "Cc1nc(-c2ccc(F)cc2NC(=O)C2CC2)cc(=O)n1Cc1cccc(C(=O)O)c1 [Compound I-0270]"
targetdesc = "Human autotaxin enzyme (Homo sapiens)"
resultvalue = "7.00 to 8.00"

[[record]]
compound = "CCOC(=O)c1noc(Cn2c(CCCC(F)(F)F)nc(-c3ccc(Cl)cc3)cc2=O)n1 [Compound I-0311]"
targetdesc = "Human autotaxin enzyme (Homo sapiens)"
resultvalue = "6.00 to 7.00"

[[record]]
compound = "O=C(Cn1cnc(-c2ccc(Cl)cc2)cc1=O)NC(Cc1ccccc1)C(=O)O (stereo not drawn) [Compound I-0396]"
targetdesc = "Human autotaxin enzyme (Homo sapiens)"
resultvalue = "≤ 6.00"

[[record]]
compound = "COC(=O)Nc1cc(Cl)ccc1-c1cc(=O)n(CC(=O)N2CC(C)(O)C2)c(C)n1 [Compound I-0411]"
targetdesc = "Human autotaxin enzyme (Homo sapiens)"
resultvalue = "6.00 to 7.00"

[[record]]
compound = "O=C(Cn1c(CCCC(F)(F)F)nc(-c2ccc(Cl)cc2)cc1=O)NCCCS(=O)(=O)O [Compound I-0138]"
targetdesc = "Human autotaxin enzyme (Homo sapiens)"
resultvalue = "> 8.00"

[[record]]
compound = "O=C(NCCCO)c1cccc(Cn2c(CCCC(F)(F)F)nc(-c3ccc(Cl)cc3)cc2=O)c1 [Compound I-0163]"
targetdesc = "Human autotaxin enzyme (Homo sapiens)"
resultvalue = "6.00 to 7.00"


What the record says about CC(C)CC1CCN(c2cc(=O)n(CC(=O)NC3(C#N)CC3)c(CCCC(F)(F)F)n2)C1 (stereo not drawn) [Compound I-0240] : pIC50 is 6.00 to 7.00

What the record says about Cc1nc(-c2ccc(Cl)cc2NC(=O)C2CC2)cc(=O)n1CC(=O)NCC(C)(C)O [Compound I-0423] : pIC50 is 7.00 to 8.00

What the record says about O=C(Cn1c(CCCC(F)(F)F)nc(-c2ccc(C(F)(F)F)cc2)cc1=O)NCCc1nnc(-c2ccccc2)o1 [Compound I-0368] : pIC50 is 7.00 to 8.00

What the record says about COC(=O)Nc1cc(Cl)ccc1-c1cc(=O)n(CC(=O)NC2(c3nc(C)no3)CC2)c(C)n1 [Compound I-0467] : pIC50 is 7.00 to 8.00

What the record says about CCCCCc1nc(-c2ccc(Cl)cc2)cc(=O)n1CC(=O)NCC(C)(C)C(=O)O [Compound I-0070] : pIC50 is > 8.00

What the record says about CC(C)(C)C(=O)Nc1cc(Cl)ccc1-c1cc(=O)n(Cc2cccc(C(=O)NCC3CCC(=O)NC3)c2)cn1 (stereo not drawn) [Compound I-0498] : pIC50 is 6.00 to 7.00

What the record says about O=C(O)c1cncc(Cn2c(CCCC(F)(F)F)nc(-c3ccc(Cl)cc3)cc2=O)c1 [Compound I-0288] : pIC50 is 7.00 to 8.00

What the record says about N#CC1(NC(=O)Cn2c(CCCC(F)(F)F)nc(-c3ccc(Cl)cc3)cc2=O)CC1 [Compound I-0123] : pIC50 is 7.00 to 8.00

What the record says about O=C(Cn1c(COCC(F)(F)F)nc(-c2ccc(Cl)cc2)cc1=O)NCC1(CO)CC1 [Compound I-0211] : pIC50 is 7.00 to 8.00
